# ASSAY_NAME: Pharmacokinetics (PK) experiment, intragastric administration in rats
# Type: in vivo, Male SD rats
# EXPERIMENTAL_CONTEXT: male, SD, rat, po, intragastric administration 20 mg/kg, plasma
# Protocol: Male SD rats weighing 215-343 grams were fasted overnight before the test. The test compound was completely dissolved in 5% of the total volume of DMSO and then diluted with 30% Captisol to 2 mg/mL, and then it was administered by gavage at dosage of 20 mg/kg. In 15 minutes, 30 minutes, 1, 2, 4, 6, 8 and 24 hours after the administration, blood was taken from the end of the tails of rats at about 0.3 ml at each time point. […]
RECORDED_ENDPOINT: Tmax (h)
Report as a plain number; the unit h is understood.

These recorded examples may help you get a feel for the data.
RECORD_SMILES	TEST_VALUE
C#CCNC(=O)C(=O)c1c(C)c(C(=O)Nc2ccc3occc3c2)n(C)c1C	1.58
Cc1c(C(=O)C(=O)NC(C)(C)C)c(C)n(C)c1C(=O)Nc1ccc2occc2c1	1
Cc1sc(C(=O)C(=O)NC(C)(C)C)c(C)c1C(=O)Nc1ccc(F)c(Cl)c1	0.5

Kindly consider the entry below.
Summary for this molecule, "C#CC(C)(C)NC(=O)C(=O)c1c(C)c(C(=O)Nc2ccc3occc3c2)n(C)c1C" : Tmax is 1.67

* * *

# ASSAY_NAME: Cytotoxicity test (Cell-titer Blue method) in HepG2.2.15 cells
# Type: cell-based
# EXPERIMENTAL_CONTEXT: human, six days after treatment, highest concentration tested 100 μM, read-out: HepG2.2.15 cell viability CC50
Overview of reported CC50 at 6 days across a group of compounds:

These recorded examples may help you get a feel for the data.
COMPOUND	CC50 at 6 days
Cc1c(C(=O)C(=O)NC(C)(C)C)coc1C(=O)Nc1ccc(F)c(Cl)c1 [Compound 83]	> 100 µM
CC(C)(C)NC(=O)C(=O)c1nc(C(=O)Nc2ccc(F)c(Cl)c2)cs1 [Compound 44]	28 µM

Kindly consider the entry below.
Summary for this compound, Cc1oc(C(=O)C(=O)NC(C)(C)C)c(Cl)c1C(=O)Nc1cc(F)c(F)c(F)c1 [Compound 49] : CC50 at 6 days is 47 µM

* * *

# ASSAY_NAME: Pharmacokinetics (PK) experiment, intragastric administration in rats
# Type: in vivo, Male SD rats
# EXPERIMENTAL_CONTEXT: male, SD, rat, po, intragastric administration 20 mg/kg, plasma
RECORDED_ENDPOINT: half-life (h)
Report as a plain number; the unit h is understood.

These recorded examples may help you get a feel for the data.
RECORD_SMILES	half-life (h)
Cc1c(C(=O)C(=O)NC(C)(C)C)c(C)n(C)c1C(=O)Nc1ccc2occc2c1	2.39
C#CCNC(=O)C(=O)c1c(C)c(C(=O)Nc2ccc3occc3c2)n(C)c1C	2.48
C#CC(C)(C)NC(=O)C(=O)c1c(C)c(C(=O)Nc2ccc3occc3c2)n(C)c1C	2.52

Kindly consider the entry below.
Summary for this compound, "Cc1sc(C(=O)C(=O)NC(C)(C)C)c(C)c1C(=O)Nc1ccc(F)c(Cl)c1" : half-life is 12.2

* * *

# ASSAY_NAME: Pharmacokinetics (PK) experiment, intragastric administration in rats
# Assay type: in vivo, Male SD rats
# EXPERIMENTAL_CONTEXT: male, SD, rat, po, intragastric administration 20 mg/kg, plasma
Overview of reported AUC(0-inf) across a group of molecules:
Report as a plain number; the unit ng·h/mL is understood.

These recorded examples may help you get a feel for the data.
RECORD_SMILES	AUC(0-inf) / ng·h/mL
Cc1sc(C(=O)C(=O)NC(C)(C)C)c(C)c1C(=O)Nc1ccc(F)c(Cl)c1	32600
C#CCNC(=O)C(=O)c1c(C)c(C(=O)Nc2ccc3occc3c2)n(C)c1C	26400
C#CC(C)(C)NC(=O)C(=O)c1c(C)c(C(=O)Nc2ccc3occc3c2)n(C)c1C	87400

Kindly consider the entry below.
Summary for this molecule, "Cc1c(C(=O)C(=O)NC(C)(C)C)c(C)n(C)c1C(=O)Nc1ccc2occc2c1" : AUC(0-inf) is 17100
